# testedOn: T1, LNX2_2, Q8N448
# T1 sequence (Q8N448 334-432, limits assumed, looked up): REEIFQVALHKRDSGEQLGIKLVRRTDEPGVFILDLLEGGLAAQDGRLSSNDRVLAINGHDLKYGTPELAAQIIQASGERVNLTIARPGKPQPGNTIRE
# measurementProtocol: holdup assay
# Design: key: below the threshold = too weak to quantify, mostly under pKd 3.1 to 4
# experimentalParameters: plain residues with an end cap or a label only (N-terminal biotin on a linker: ado-ado)
propertyName: pKd

HLSTRQGTCV [ATRNL1, Q5VV63]
5.01
ELKAEDEVQI [DCHS2, Q6V1P9]
3.71
HYPASPDSWV [CTNND2, Q9UQB3]
4.72
DFKHTKSFII [JAM2, P57087]
4.7
IGHEDLETAV [DGKI, O75912]
3.73
PEKVSNTTVV [IGSF5, Q9NSI5]
5.14
SGDGKTSVWI [GJC1, P36383]
5.42
STYCDYTIEI [FAM71C, Q8NEG0]
4.96
